- System: RPMI-8226 leukemia
- Assay Summary: NCI-60 one-dose screen, 48 h (100 = growth as untreated, 0 = no growth, -100 = all killed)
- Assay Conditions: 10 µM unless noted
About 83,000 compounds went through this panel and 20% of them were active in at least one assay; those are over-represented in the sample as a whole.
The compounds listed here are annotated with their growth.
# unit: % | format: bare number

Answered cases to consult:
| Compound | growth / % |
| --- | --- |
| CC(C)CCSc1nc(-c2ccc(F)cc2)c(C#N)c(N2CCCCC2)n1 | 91.2 |
| COc1ccc(C(=O)OC2C(OC3C(O)COC(O[C@H]4C[C@H]5[C@@H]6CC=C7C[C@@H](O)CC[C@]7(C)[C@H]6CC[C@]5(C)[C@H]4[C@H](C)C(=O)CCC(C)C)C3OC(=O)C(C)C)OCC(O)C2O)cc1 (some centres not stated) | -27.4 |
| O=C1/C(=C/c2ccccc2)SC(=Nc2ccccc2)N1Nc1ccccc1 | -37.4 |
| CC1=C(O)C(=O)CC1 | 110 |
| COc1cc(C2CC(c3ccc(Cl)cc3)=NN2C(C)=O)ccc1Oc1nc2c(c(=O)n(C)c(=O)n2C)n1C (configuration not stated) | 72.1 |
| CC(C)[C@@H]1C=C2CC[C@H]3[C@](C)(CN)CCC[C@]3(C)[C@H]2CC1 | 20.7 |
| CN(C)c1ccc(/C=C\c2cccc[n+]2C)cc1 | 3.96 |
| NC(CCC(=O)NC(CS)C(=O)NCC(=O)O)C(=O)O (configuration not stated) | 74.2 |

Ask: State its growth: CN1CCC2(CC1)N=C(SCC(=O)Nc1cnc3ccccc3c1)C(c1ccc(Br)cc1)=N2
Result: -7.88

Ask: State its growth: Nc1c(C(=O)Nc2ccccc2)sc2nc3c(cc12)C(=O)CCC3
Result: 30.2

Ask: State its growth: COc1ccc(-n2nc(C(=O)Nc3ccc(F)cc3)nc2-c2cc(OC)c(OC)c(OC)c2)cc1
Result: 96.8

Ask: State its growth: CCN(CC)c1ccc(/C=C2/NC(=O)NC2=O)cc1
Result: 74.1

Ask: State its growth: Nc1nc(N)c2cc(NCc3ccc(Cl)c(Cl)c3)ccc2n1
Result: -42

Ask: State its growth: CCN(CC)CC(=O)Nc1c(C)cc(C(=O)NN)cc1C
Result: 120

Ask: State its growth: Nc1c(C(=O)Nc2cccc(Cl)c2)sc2nc3c(cc12)C(=O)CCC3
Result: 51.8

Ask: State its growth: COc1ccc(C2c3cccn3-c3ccccc3N2C(C)=O)cc1 (configuration not stated)
Result: 85.5

Ask: State its growth: O=C1N(Cc2ccccc2Cl)c2ccccc2C12NN=C(c1ccccc1)S2 (configuration not stated)
Result: 66.3

---

- Tested on: NCI/ADR-RES ovarian
- Assay Summary: NCI-60 one-dose screen, 48 h
- Assay Conditions: 10 µM unless noted
About 83,000 compounds went through this panel and 20% of them were active in at least one assay; those are over-represented in the sample as a whole. Calls of active or inactive are those of the source. How the source made its calls: active means growth percent below 10; inactive means the rest.
I would appreciate it if you answered using one of these outcomes: active, inactive

| Molecule | Group Label |
| --- | --- |
| CC[C@H](C)[C@H](N)C(=O)O | inactive |
| CCOC(=O)C(Cc1ccccc1)n1c(O)c(/C=N/c2ncc(Cc3ccc(Cl)cc3Cl)s2)sc1=S (centres undefined) | active |
| C=C(COC(C)=O)[C@H]1CC/C(C)=C/CC/C(C)=C/CC[C@@]2(C)O[C@H]2C1 | inactive |
| COc1ccc(-c2nc3ccccc3n3cccc23)cc1 | inactive |
| CCCCCN(CCCCC)C(=O)C(CCC(=O)O)NC(=O)c1ccc(Cl)c(Cl)c1 (centres undefined) | inactive |
| COc1ccc(CNc2c3ccccc3nc3ccc(OC)cc23)cc1 | inactive |

Note: attention shifts to another entry.
Ask: Could you please tell me the result logged for Clc1ccc(Cl)c(N=Cc2ccc3c(c2)OCO3)c1 in this assay?
Result: inactive
